Listed here: items and their measured Kcomp MS-325 vs. L pH 4.
run.description: Ligand challenge, equilibrium constant Kcomp of MS-325 vs. L
Format: physicochemical
test.settings: pH 4; calculated from literature thermodynamic data

Ask | Quick one: Kcomp MS-325 vs. L pH 4 for CC(O)CN1CCN(CC(=O)O)CCN(CC(=O)O)CCN(CC(=O)O)CC1 (stereo not shown) ?
Reply | 0.16^5,6

Ask | Another compound: O=C(O)CN(CCN(CC(=O)O)CC(=O)O)CCN(CC(=O)O)CC(=O)O
Reply | 0.58^5

Ask | Another compound: O=C(O)CN(CCN(CC(=O)O)C[C@H](COP(=O)(O)OC1CCC(c2ccccc2)(c2ccccc2)CC1)N(CC(=O)O)CC(=O)O)CC(=O)O
Reply | 1

Ask | Another compound: O=C(O)CN1CCNCCN(CC(=O)O)CCN(CC(=O)O)CC1
Reply | 0.00046^5,6

* * *

Listed here: items and their measured r1 (60 MHz), absence of HSA.
run.description: Relaxivity in the absence and presence of HSA (Example 3)
Assay type: physicochemical
test.settings: 60 MHz; absence of HSA (first value of cell)
Record the result as number plus unit.

C[C@@H](NC(=O)C(CN1CCN(CC(=O)O)CCN(CC(=O)O)CCN(CC(=O)O)CC1)NC(=O)C(N)Cc1cc(I)c(O)c(I)c1)c1ccccc1 (stereo partly shown) [Gd (13-S)]
6.1 mM⁻¹ s⁻¹
C[C@@H](C(=O)NC(CN1CCN(CC(=O)O)CCN(CC(=O)O)CCN(CC(=O)O)CC1)C(=O)N[C@@H](Cc1cc(I)c(O)c(I)c1)C(=O)O)c1ccccc1 (stereo partly shown) [Gd (19)]
6.4 mM⁻¹ s⁻¹
COC(=O)CNC(=O)C(CN1CCN(CC(=O)O)CCN(CC(=O)O)CCN(CC(=O)O)CC1)NC(=O)C(N)Cc1cc(I)c(O)c(I)c1 (stereo not shown) [Gd (7)]
3.9 mM⁻¹ s⁻¹

Ask | Quick one: r1 (60 MHz), absence of HSA for C[C@@H](NC(=O)C(CN1CCN(CC(=O)O)CCN(CC(=O)O)CCN(CC(=O)O)CC1)NC(=O)C(N)Cc1cc(I)c(O)c(I)c1)c1ccccc1 (stereo partly shown) [Gd (13-R)] ?
Reply | 6.4 mM⁻¹ s⁻¹

* * *

run.description: Ligand challenge, equilibrium constant Kcomp of [Gd(DTPA)(H2O)]2− vs. L
Assay type: physicochemical
test.settings: pH 4; calculated from literature thermodynamic data
Listed here: items and their measured Kcomp [Gd(DTPA)(H2O)]^2- vs. L pH 4.

# count of solved cases: 4
CC1(N(CC(=O)O)CC(=O)O)CN(CC(=O)O)CCN(CC(=O)O)C1 [AAZTA]
0.091^9
O=C(O)CN1CCNCCN(CC(=O)O)CCN(CC(=O)O)CC1 [DO3A]
0.00048^5,6
CC(O)CN1CCN(CC(=O)O)CCN(CC(=O)O)CCN(CC(=O)O)CC1 (stereo not drawn) [HP-DO3A]
0.22^6
O=C(O)CN(CCN(CC(=O)O)CC(=O)O)CCN(CC(=O)O)CC(=O)O [DTPA]
1

Ask | Quick one: Kcomp [Gd(DTPA)(H2O)]^2- vs. L pH 4 for O=C(O)CN(CCN(CC(=O)O)C[C@H](COP(=O)(O)OC1CCC(c2ccccc2)(c2ccccc2)CC1)N(CC(=O)O)CC(=O)O)CC(=O)O ?
Reply | 0.57^5

Ask | Another compound: O=C(O)CN1CCN(CC(=O)O)Cc2cccc(n2)CN(CC(=O)O)CC1 [PCTA]
Reply | 0.064^10
